Target: soluble TSHR protein (ELISA coat) (human, UniProt P16473 22-260, limits assumed)
Assay: ELISA, plate coated with soluble TSHR, antibody at 100 nM, anti-human IgG Fc-HRP;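 note: binding of antibody variants to soluble TSHR coated at 2 µg/ml, with colour developed using TMB substrate and stopped with H2SO4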
Measured property: ELISA (OD 450) at 100 nM
Express your answer in OD 450, writing the number without its unit.

TSHB-18 (antibody, V domains shown) VH: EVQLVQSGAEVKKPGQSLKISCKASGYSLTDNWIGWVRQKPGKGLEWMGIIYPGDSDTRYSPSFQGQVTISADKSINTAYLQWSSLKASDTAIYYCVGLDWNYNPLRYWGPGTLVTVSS VL: QSVLTQPPSVSAAPGQKVTISCSGSSTDIGSNYVSWYQQLPGTAPKLLIYDNNKRPSGIPDRFSGSKSGTSATLGITGLQTGDEADYYCGTWDSRLGIAVFGGGTQLTVL : 0.495
TSHB-3 (antibody, V domains shown) VH: EVQLVQSGAEVKKPGESLKISCKASGYSLTDNWIGWVRQKPGKGLEWMGIIYPGDSDTRYSPSFQGQVTISADKSISTAYLQWSSLKASDTAIYYCVGLEWNYNPLRYWGQGTLVTVSS VL: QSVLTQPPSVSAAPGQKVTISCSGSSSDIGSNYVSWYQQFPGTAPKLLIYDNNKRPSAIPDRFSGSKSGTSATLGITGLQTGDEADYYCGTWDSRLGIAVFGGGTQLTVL : 0.407

Would you kindly look at the next entry?
# query: ELISA (OD 450) at 100 nM of entry TSHB-17 (antibody, V domains shown) VH: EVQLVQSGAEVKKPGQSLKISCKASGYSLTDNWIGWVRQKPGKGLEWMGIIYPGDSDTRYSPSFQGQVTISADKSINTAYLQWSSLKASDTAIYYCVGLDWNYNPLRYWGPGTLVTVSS VL: QSVLTQPPSVSAAPGQKVTISCSGSSSDIGSLYVSWYQQLPGTAPKLLIYDNNKRPSGIPDRFSGSKSGTSATLGITGLQTGDEADYYCGTWDSRLGIAVFGGGTQLTVL 0.402
